- SYSTEM_TESTED: Mcl-1/Bim interaction, recombinant human Mcl-1 (171-327) (Homo sapiens, UniProt Q07820)
- Construct: made in house
- Sequence (Q07820 171-327): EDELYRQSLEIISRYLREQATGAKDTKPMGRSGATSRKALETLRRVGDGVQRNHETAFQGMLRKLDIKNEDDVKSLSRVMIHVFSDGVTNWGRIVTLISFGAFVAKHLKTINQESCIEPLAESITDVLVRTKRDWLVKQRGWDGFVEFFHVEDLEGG
- MEASUREMENT_PROTOCOL: Cell free Mcl-1: Bim Affinity Assay (Mcl-1 HTRF)
- Type: binding
- EXPERIMENTAL_PARAMETERS: TR-FRET, 0.1 nM Mcl-1 (171-327), 0.05 nM biotin-Bim (51-76)
REPORTED_PROPERTY: pIC50
// scale note: pIC50 = -log10(conc_M); give the bare number

Example molecules with recorded pIC50:
MOLECULE	SYSTEM_TESTED	ASSAY_RESULT
C[C@@H]1[C@@H](C)C/C=C/[C@H](OCC(=O)N(C)CCN(C)C)[C@@H]2CC[C@H]2CN2C[C@@]3(CCCc4cc(Cl)ccc43)COc3ccc(cc32)C(=O)NS1(=O)=O [Example 300]	Mcl-1/Bim interaction, recombinant human Mcl-1 (171-327) (Homo sapiens, UniProt Q07820)	9.62
CC1C=CC(O)C2CCC2CN2CC3(CCCc4cc(Cl)ccc43)COc3ccc(cc32)C(=O)NS(=O)(=O)CC1C (single isomer, unassigned) [Example 1061]	Mcl-1/Bim interaction, recombinant human Mcl-1 (171-327) (Homo sapiens, UniProt Q07820)	9.15
O=C1NS(=O)(=O)C(C(F)F)CCC=CC(O)C2CCC2CN2CC3(CCCc4cc(Cl)ccc43)COc3ccc1cc32 (single isomer, unassigned) [Example 438]	Mcl-1/Bim interaction, recombinant human Mcl-1 (171-327) (Homo sapiens, UniProt Q07820)	9.14

Query: Form field: reported pIC50 of CC[C@@H]1CC/C=C/[C@H](OCc2nccn2C)[C@@H]2CC[C@H]2CN2C[C@@]3(CCCc4cc(Cl)ccc43)COc3ccc(cc32)C(=O)NS1(=O)=O [Example 965]
Result: 9.39

Query: Quick one: CCN1CCCC[C@H](O)[C@@H]2CC[C@H]2CN2C[C@@]3(CCCc4cc(Cl)ccc43)COc3ccc(cc32)C(=O)NS1(=O)=O [Example 86]
Result: 8.39
